Test system: L1210 leukemia ip in BDF1 mice, survival T/C
ASSAY_SUMMARY: NCI In Vivo Anticancer Drug Screen. Data for tumor model L1210 Leukemia (intraperitoneal) in B6D2F1 (BDF1) mice
RUN_CONDITIONS: endpoint: mean survival time; dose: 200.0 mg/kg/injection; schedule: Q01DX001 (ip); vehicle: saline; higher = longer survival
Toxic doses and inconclusive results are not listed.
QUANTITY: T/C

Look over these answered cases.
> print(dat)
                                   compound            result
1               N#CCC1=CC(=O)C(=O)c2ccccc21  102 % of control
2  CC12CCC3c4ccc(Cc5ccc([N+](=O)[O-])cc5)cc4CCC3C1CCC2=O (configuration not stated)  100 % of control
3  CC(OC(=O)c1ccccc1)C(N)=S (configuration not stated)   93 % of control
4                   CN1C(=O)NC(=O)C12CCNCC2  103 % of control
5  Nc1ccccc1Nc1ccc(-c2ccc(Nc3ccccc3N)cc2)cc1  100 % of control

The reported value for N#Cc1[nH]cnc1N in terms of T/C is 105 % of control

The reported value for COC(=O)c1sccc1C=O in terms of T/C is 100 % of control

---

As shown below, each of these compounds has a reported T/C value.
System: L1210 leukemia ip in BDF1 mice, survival T/C
ASSAY_SUMMARY: NCI In Vivo Anticancer Drug Screen. Data for tumor model L1210 Leukemia (intraperitoneal) in B6D2F1 (BDF1) mice
RUN_CONDITIONS: endpoint: mean survival time; dose: 200.0 mg/kg/injection; schedule: Q01DX009 (ip); vehicle: saline; higher = longer survival
Toxic doses and inconclusive results are not listed.

COMPOUND	SUBJECT_OF_TEST	T/C
CC1NCCC1CO (centres undefined)	L1210 leukemia ip in BDF1 mice, survival T/C	94 % of control
CC1NC1C (centres undefined)	L1210 leukemia ip in BDF1 mice, survival T/C	108 % of control
c1cnc2[nH]cnc2n1	L1210 leukemia ip in BDF1 mice, survival T/C	109 % of control
COCC1OC(OC2OCC3OC4(OCC(O)(C(C)OC)C5OCOC54)OC3C2OC)C(OC)C(O)C1OC1OC(C)C(OC)C(OC2OC(C)C3OC4(CC(O)C(OC5CC(OC6CC(C)([N+](=O)[O-])C(OC)C(C)O6)C(OC(=O)c6c(C)c(Cl)c(O)c(Cl)c6OC)C(C)O5)C(C)O4)OC3(C)C2O)C1O (centres undefined)	L1210 leukemia ip in BDF1 mice, survival T/C	96 % of control
O=C1OC(c2ccc([N+](=O)[O-])cc2)=N/C1=C\c1ccc(Cl)cc1	L1210 leukemia ip in BDF1 mice, survival T/C	91 % of control

The reported value for Oc1c(CN2CCOCC2)cc(CN2CCOCC2)cc1CN1CCOCC1 in terms of T/C is 90 % of control

---

Tested on: L1210 leukemia ip in BDF1 mice, survival T/C
ASSAY_SUMMARY: NCI In Vivo Anticancer Drug Screen. Data for tumor model L1210 Leukemia (intraperitoneal) in B6D2F1 (BDF1) mice
RUN_CONDITIONS: endpoint: mean survival time; dose: 100.0 mg/kg/injection; schedule: Q04DX002 (ip); vehicle: Klucel (hydroxypropylcellulose) (HPC); higher = longer survival
Toxic doses and inconclusive results are not listed.
QUANTITY: T/C

Look over these answered cases.
> print(dat)
                                   molecule  quantity            result
1               COc1cccc(C=O)c1[N+](=O)[O-]       T/C  104 % of control
2  O=C(COc1ccc(Cl)cc1)Oc1c(Cl)c(Cl)c(Cl)c(Cl)c1Cl       T/C   97 % of control

The reported value for CCO/C(C)=N/OC(=O)c1ccccc1 in terms of T/C is 94 % of control

The reported value for NC(C(=O)O)C(C(=O)O)c1ccccc1 (stereo not given) in terms of T/C is 101 % of control

The reported value for CCOC(=O)N(CCN1C(=O)c2ccccc2C1=O)c1cc(OC)ccc1OC in terms of T/C is 100 % of control

---

Test system: L1210 leukemia ip in BDF1 mice, survival T/C
ASSAY_SUMMARY: NCI In Vivo Anticancer Drug Screen. Data for tumor model L1210 Leukemia (intraperitoneal) in B6D2F1 (BDF1) mice
RUN_CONDITIONS: endpoint: mean survival time; dose: 400.0 mg/kg/injection; schedule: Q04DX003 (ip); vehicle: Klucel (hydroxypropylcellulose) (HPC); higher = longer survival
Inconclusive results and toxic doses are left out.
As shown below, each of these compounds has a reported T/C value.

Look over these answered cases.
> print(dat)
                                   compound            result
1          O=C(CCN1CC1)NCCCCCCNC(=O)CCN1CC1   86 % of control
2             COC(=O)CCC(=O)NCCc1cccc(OC)c1   92 % of control
3  O=[N+]([O-])c1cc([N+](=O)[O-])c(NN(c2ccccc2)c2cccc3ccccc23)c([N+](=O)[O-])c1   94 % of control
4  CC(=O)N(C(C)=O)C1=C(c2ccccc2)C(=O)c2ccccc21  107 % of control
5                   O=[N+]([O-])c1ccc(S)cc1   90 % of control

The reported value for Clc1ccc(OCc2sc3ccc(Br)cc3c2CN2CCc3ccccc3C2)cc1 in terms of T/C is 94 % of control

The reported value for [N-]=Cc1c(O)cccc1Cl.[N-]=Cc1cc(Cl)ccc1O.[Ni+2] in terms of T/C is 86 % of control

The reported value for CCc1[nH]c(=S)nc(-c2ccccc2)c1-c1ccc([N+](=O)[O-])cc1O in terms of T/C is 95 % of control

The reported value for CCCCCCCCCCCCCCCCCCNC(=O)N(CC)c1ccccc1 in terms of T/C is 92 % of control

---

System: L1210 leukemia ip in BDF1 mice, survival T/C
ASSAY_SUMMARY: NCI In Vivo Anticancer Drug Screen. Data for tumor model L1210 Leukemia (intraperitoneal) in B6D2F1 (BDF1) mice
RUN_CONDITIONS: endpoint: mean survival time; dose: 25.0 mg/kg/injection; schedule: Q01DX009 (ip); vehicle: Klucel (hydroxypropylcellulose) (HPC); higher = longer survival
Inconclusive results and toxic doses are left out.
As shown below, each of these compounds has a reported T/C value.

Look over these answered cases.
> print(dat)
                                chem.smiles                           subject.of.test            result
1  [N-]=Cc1c(O)cccc1Cl.[N-]=Cc1cc(Cl)ccc1O.[Ni+2]  L1210 leukemia ip in BDF1 mice, survival T/C   95 % of control
2  CC1(C)N=C(N)N=C(N)N1c1ccc(CCc2ccccc2)c(Cl)c1  L1210 leukemia ip in BDF1 mice, survival T/C  107 % of control

Okay, next one:
The reported value for NC(=S)N/N=C/c1cccnc1 in terms of T/C is 92 % of control

---

As shown below, each of these compounds has a reported T/C value.
Tested on: L1210 leukemia ip in BDF1 mice, survival T/C
ASSAY_SUMMARY: NCI In Vivo Anticancer Drug Screen. Data for tumor model L1210 Leukemia (intraperitoneal) in B6D2F1 (BDF1) mice
RUN_CONDITIONS: endpoint: mean survival time; dose: 100.0 mg/kg/injection; schedule: Q01DX009 (ip); vehicle: Klucel (hydroxypropylcellulose) (HPC); higher = longer survival
Toxic doses and inconclusive results are not listed.

The reported value for CN(C)c1ccc2c(c1)C(Br)c1ccccc1-2 (stereo not drawn) in terms of T/C is 106 % of control

---

Tested on: L1210 leukemia ip in BDF1 mice, survival T/C
ASSAY_SUMMARY: NCI In Vivo Anticancer Drug Screen. Data for tumor model L1210 Leukemia (intraperitoneal) in B6D2F1 (BDF1) mice
RUN_CONDITIONS: endpoint: mean survival time; dose: 200.0 mg/kg/injection; schedule: Q01DX001 (ip); vehicle: saline; higher = longer survival
Toxic doses and inconclusive results are not listed.
QUANTITY: T/C

The reported value for ClCc1c2ccccc2c(CCl)c2ccccc12 in terms of T/C is 109 % of control

The reported value for Cc1ccccc1SCCC(=O)O in terms of T/C is 87 % of control

The reported value for Cc1ccc(S(=O)(=O)C2=C(c3ccccc3)c3ccccc3CC2)cc1 in terms of T/C is 93 % of control

The reported value for Cc1cccc(C)c1N(C=O)N=O in terms of T/C is 104 % of control

The reported value for CCC#CC(O)(C(=O)OCC)C1CCCC1 (centres undefined) in terms of T/C is 105 % of control

Entry source: PubChem BioAssay AID248
